The reported measurements were obtained from patent US20230183239A1.

Target: ENPP1 (Homo sapiens, UniProt P22413)
Sequence (P22413 1-925): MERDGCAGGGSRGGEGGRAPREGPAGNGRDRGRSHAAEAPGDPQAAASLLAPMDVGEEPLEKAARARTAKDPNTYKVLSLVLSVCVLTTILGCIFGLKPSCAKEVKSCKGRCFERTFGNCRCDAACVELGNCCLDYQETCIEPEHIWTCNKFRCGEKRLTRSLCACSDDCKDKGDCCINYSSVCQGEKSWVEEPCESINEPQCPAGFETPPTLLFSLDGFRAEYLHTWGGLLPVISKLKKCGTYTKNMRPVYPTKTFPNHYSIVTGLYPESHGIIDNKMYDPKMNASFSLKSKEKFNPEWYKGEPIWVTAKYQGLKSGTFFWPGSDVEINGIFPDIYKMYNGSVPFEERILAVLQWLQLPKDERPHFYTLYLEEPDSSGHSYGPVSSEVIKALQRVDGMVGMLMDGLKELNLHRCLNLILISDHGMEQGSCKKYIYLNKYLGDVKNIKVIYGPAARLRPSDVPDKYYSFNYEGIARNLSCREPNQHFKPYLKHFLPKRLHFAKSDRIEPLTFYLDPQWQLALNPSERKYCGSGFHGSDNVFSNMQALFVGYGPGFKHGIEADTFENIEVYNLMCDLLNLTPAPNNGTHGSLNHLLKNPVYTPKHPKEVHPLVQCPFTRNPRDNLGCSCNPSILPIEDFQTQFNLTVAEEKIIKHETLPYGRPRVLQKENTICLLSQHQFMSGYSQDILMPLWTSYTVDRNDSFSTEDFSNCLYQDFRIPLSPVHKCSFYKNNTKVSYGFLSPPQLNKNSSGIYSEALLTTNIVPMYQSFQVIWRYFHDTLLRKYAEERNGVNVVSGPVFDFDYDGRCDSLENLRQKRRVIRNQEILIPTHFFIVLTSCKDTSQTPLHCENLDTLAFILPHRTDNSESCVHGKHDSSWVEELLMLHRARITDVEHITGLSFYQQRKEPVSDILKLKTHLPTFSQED
Assay: ENPP1 enzyme assay with AMP-pNP substrate (hydrolysis of ATP analog)
Format: biochemical
Settings: AMP-pNP substrate (ATP analog); Ki from IC50 by Cheng-Prusoff; read-out: ENPP1 Inhibition _AMP-pNP: Ki
RESULT TYPE: Ki

Examples with answers:
SMILES INPUT: COc1cc2nccc(Oc3cc(F)c(NS(N)(=O)=O)c(F)c3)c2cc1OC
EXPERIMENTAL SYSTEM: ENPP1 (Homo sapiens, UniProt P22413)
TEST VALUE: > 1 µM
--
SMILES INPUT: COc1ccc2ncc(C#N)c(-c3ccc(CN(C4CC4)S(N)(=O)=O)cc3)c2c1
EXPERIMENTAL SYSTEM: ENPP1 (Homo sapiens, UniProt P22413)
TEST VALUE: > 1 µM
--
SMILES INPUT: COc1cc2nccc(N3CCC(CN(C4CC4)S(N)(=O)=O)CC3)c2cc1OC
EXPERIMENTAL SYSTEM: ENPP1 (Homo sapiens, UniProt P22413)
TEST VALUE: > 1 µM
--
SMILES INPUT: COc1cc2ncnc(N3CCC(CCNS(N)(=O)=O)CC3)c2cc1F
EXPERIMENTAL SYSTEM: ENPP1 (Homo sapiens, UniProt P22413)
TEST VALUE: 0.1 to 1 µM

# batch size: 2; output Ki per entry
1. COc1ccc2c(N3CCc4cc(NS(N)(=O)=O)cc(F)c43)ccnc2c1
2. COc1ccc2c(N3CCC4(CC3)CCN(S(N)(=O)=O)C4)c(C#N)cnc2c1

Solution:
< 0.1 µM
< 0.1 µM
